tested on: Nucleic Acid; test: Binding affinity to calf thymus DNA assessed as change in melting temperature at 0.5 compound to polynucleotide ratio by UV-VIS spectral study; assay type: nucleic-acid assay; details: Bos taurus
Could you please report measured ΔTm for the items listed next?
Numbers only, in °C.

CC(C)NC(=N)c1ccc(NC(=O)c2ccc(C(=O)Nc3ccc(C(=N)NC(C)C)cc3)o2)cc1.Cl.Cl	6.6
Cl.Cl.N=C(N)c1ccc(C(=O)Nc2cccc(NC(=O)c3ccc(C(=N)N)cc3)n2)cc1	15
CC(C)NC(=N)c1ccc(C(=O)Nc2cccc(NC(=O)c3ccc(C(=N)NC(C)C)cc3)n2)cc1.Cl.Cl	14.5

# assay system Nucleic Acid: give ΔTm of CC(C)NC(=N)c1ccc(NC(=O)c2cccc(C(=O)Nc3ccc(C(=N)NC(C)C)cc3)n2)cc1.Cl.Cl
10.3

----------
target: Nucleic Acid; test: Binding affinity to Poly G-Poly C RNA assessed as ratio of ethidium bromide /compound at which 50% of ethidium bromide fluorescence is quenched by displacement assay; type: nucleic-acid assay
Can you tell me IC50 for the items I'm about to list?
Answers are plain numbers, in molar ratio.

The cases that follow already have their IC50 on record.
Cl.Cl.N=C(N)c1ccc(C(=O)Nc2cccc(NC(=O)c3ccc(C(=N)N)cc3)n2)cc1	0.07
CC(C)NC(=N)c1ccc(NC(=O)c2cccc(C(=O)Nc3ccc(C(=N)NC(C)C)cc3)n2)cc1.Cl.Cl	0.1
Cl.Cl.N=C(N)c1ccc(NC(=O)c2cccc(C(=O)Nc3ccc(C(=N)N)cc3)n2)cc1	0.25

Hi! Can you tell me IC50 for each of these compounds?
1. CC(C)NC(=N)c1ccc(C(=O)Nc2cccc(NC(=O)c3ccc(C(=N)NC(C)C)cc3)n2)cc1.Cl.Cl
2. Cl.Cl.N=C(N)c1ccc(NC(=O)c2ccc(C(=O)Nc3ccc(C(=N)N)cc3)o2)cc1
3. CC(C)NC(=N)c1ccc(NC(=O)c2ccc(C(=O)Nc3ccc(C(=N)NC(C)C)cc3)o2)cc1.Cl.Cl

0.07
0.36
0.2

----------
system: Nucleic Acid; assay: Binding affinity to Poly dA-Poly dT DNA assessed as change in melting temperature at 0.5 compound to polynucleotide ratio by UV-VIS spectral study; assay type: nucleic-acid assay
MEASURED_METRIC: ΔTm (°C)
One number for each entry, in °C.

CC(C)NC(=N)c1ccc(NC(=O)c2cccc(C(=O)Nc3ccc(C(=N)NC(C)C)cc3)n2)cc1.Cl.Cl	25.5

Kindly give each listed record's ΔTm.
1. CC(C)NC(=N)c1ccc(NC(=O)c2ccc(C(=O)Nc3ccc(C(=N)NC(C)C)cc3)o2)cc1.Cl.Cl
2. Cl.Cl.N=C(N)c1ccc(C(=O)Nc2cccc(NC(=O)c3ccc(C(=N)N)cc3)n2)cc1
3. CC(C)NC(=N)c1ccc(C(=O)Nc2cccc(NC(=O)c3ccc(C(=N)NC(C)C)cc3)n2)cc1.Cl.Cl

31.7
30.9
32.2

----------
molecular target: Nucleic Acid; assay: Binding affinity to Poly A-Poly U RNA assessed as ratio of ethidium bromide /compound at which 50% of ethidium bromide fluorescence is quenched by displacement assay; type: nucleic-acid assay
MEASURED_METRIC: IC50
Answer by giving the amount and then stating its unit.

// for each molecule below, give its IC50
1. Cl.Cl.N=C(N)c1ccc(NC(=O)c2ccc(C(=O)Nc3ccc(C(=N)N)cc3)o2)cc1
2. CC(C)NC(=N)c1ccc(C(=O)Nc2cccc(NC(=O)c3ccc(C(=N)NC(C)C)cc3)n2)cc1.Cl.Cl
3. CC(C)NC(=N)c1ccc(NC(=O)c2ccc(C(=O)Nc3ccc(C(=N)NC(C)C)cc3)o2)cc1.Cl.Cl
4. Cl.Cl.N=C(N)c1ccc(C(=O)Nc2cccc(NC(=O)c3ccc(C(=N)N)cc3)n2)cc1

1. 1 molar ratio
2. 0.07 molar ratio
3. 0.03 molar ratio
4. 0.5 molar ratio

Provide IC50 for all items below, preserving their order.
1. CC(C)NC(=N)c1ccc(NC(=O)c2cccc(C(=O)Nc3ccc(C(=N)NC(C)C)cc3)n2)cc1.Cl.Cl
2. Cl.Cl.N=C(N)c1ccc(NC(=O)c2cccc(C(=O)Nc3ccc(C(=N)N)cc3)n2)cc1

1. 0.17 molar ratio
2. 0.47 molar ratio
